Source of measurements: patent US20240298643A1

Reported Lethality by item:
Tested on: Tetranychus cinnabarinus
protocol-details: acaricidal activity test, spraying kidney bean seedlings inoculated with mites
Format: in vivo
reported-conditions: 6.25 mg/L, sprayed on kidney bean seedlings, living mites counted after 72 hours, 25° C.
Write it as a number; the unit % goes unstated.

molecule: CCS(=O)(=O)n1c(-c2cc(C(F)(F)F)cc(C(F)(F)F)c2)nc2cc(Cl)c(Cl)cc21 [Compound 1-265]
unit-symbol: %
Lethality: 100

molecule: CCS(=O)(=O)n1c(-c2cc(Br)cc(OC(F)(F)F)c2)nc2ccccc21 [Compound 1-186]
unit-symbol: %
Lethality: 100

molecule: CCS(=O)(=O)n1c(-c2cc(Cl)cc(C(F)(F)F)c2)nc2ccccc21 [Compound 1-213]
unit-symbol: %
Lethality: 99

molecule: CCS(=O)(=O)n1c(-c2ccc(F)c(C(F)(F)F)c2)nc2ccccc21 [Compound 1-27]
unit-symbol: %
Lethality: 90

molecule: CCS(=O)(=O)n1c(-c2cc([N+](=O)[O-])cc(C(F)(F)F)c2)nc2ccccc21 [Compound 1-235]
unit-symbol: %
Lethality: 99

input: For CCS(=O)(=O)n1c(-c2cc(C(F)(F)F)cc(C(F)(F)F)c2)nc2ccccc21 [Compound 1-47] , what is its reported Lethality?
output: 99

input: Look up Lethality for this molecule: CCS(=O)(=O)n1c(-c2cc(Br)cc(C(F)(F)F)c2)nc2ccccc21 [Compound 1-214]
output: 97

input: I have this molecule here, CS(=O)(=O)n1c(-c2cc(Cl)cc(C(F)(F)F)c2)nc2ccccc21 [Compound 1-133] , and I need its recorded Lethality.
output: 99

====

System: Tetranychus cinnabarinus
protocol-details: acaricidal activity test, spraying kidney bean seedlings inoculated with mites
Type: in vivo
reported-conditions: 6.25 mg/L, sprayed on kidney bean seedlings, living mites counted after 72 hours, 25° C.
endpoint-label: Lethality (%)
Kindly provide the numeric value in % only, without the unit symbol.

input: Which Lethality value is on record for CCCCS(=O)(=O)n1c(-c2cc(C(F)(F)F)cc(C(F)(F)F)c2)nc2ccccc21 [Compound 1-255] ?
output: 91

input: I'd like to know its Lethality. The compound in question is CCS(=O)(=O)n1c(-c2cc(Cl)cc(OC(F)(F)F)c2)nc2ccccc21 [Compound 1-239]
output: 100

input: May I ask what Lethality has been recorded for CCS(=O)(=O)n1c(-c2cc(C(F)(F)F)cc(C(F)(F)F)c2)nc2cc(F)c(F)cc21 [Compound 1-257] ?
output: 98

input: I would be grateful if you could share the reported Lethality for CCS(=O)(=O)n1c(-c2ccc(Cl)c(C(F)(F)F)c2)nc2cc(F)c(F)cc21 [Compound 1-57] .
output: 92

input: Can you look up the measured Lethality of CCCS(=O)(=O)n1c(-c2cc(C(F)(F)F)cc(C(F)(F)F)c2)nc2ccccc21 [Compound 1-254] for me?
output: 97

====

Catalogue of Lethality values
Test system: Tetranychus cinnabarinus
protocol-details: acaricidal activity test, spraying kidney bean seedlings inoculated with mites
Assay type: in vivo
reported-conditions: 6.25 mg/L, sprayed on kidney bean seedlings, living mites counted after 72 hours, 25° C.
Give the quantity in %, number only.

Answered examples (3):
compound: CCS(=O)(=O)n1c(-c2cc(F)cc(C(F)(F)F)c2)nc2ccccc21 [Compound 1-174]
unit-symbol: %
Lethality: 98
--
compound: CCS(=O)(=O)n1c(-c2ccc(Cl)c(C(F)(F)F)c2)nc2ccccc21 [Compound 1-28]
unit-symbol: %
Lethality: 97
--
compound: CCS(=O)(=O)n1c(-c2cc(C#N)cc(C(F)(F)F)c2)nc2ccccc21 [Compound 1-218]
unit-symbol: %
Lethality: 98

Then this compound:
input: Name the reported Lethality value associated with the compound CCS(=O)(=O)n1c(-c2ccc(F)c(C(F)(F)F)c2)nc2cc(F)c(F)cc21 [Compound 1-56]
output: 95
